- Test system: MALME-3M melanoma
- ASSAY_DETAILS: NCI-60 one-dose screen, 48 h (100 = growth as untreated, 0 = no growth, -100 = all killed)
- CONDITION_DESCRIPTION: 10 µM unless noted
This is part of a sample that, as a whole, favours compounds with a hit. Of some 83,000 tested, about 20% had one in any assay.
PROPERTY_LABEL: growth (%)
Express the result in % but write the number alone.

Kindly note the recorded growth for COc1ccc(/C(C)=C(\c2ccc(OCCN3CCOCC3)cc2)c2ccc(OC(=O)C3CCCCC3)cc2)cc1 , which is 97.7

Kindly note the recorded growth for CC1=C2[C@@H](CC1)[C@]1(C)O[C@@](C(C)C)(C[C@H]1OC(=O)CO)[C@H]2OC(=O)C1CC1c1ccccc1 (some centres undefined) , which is 91.7

Kindly note the recorded growth for CCc1c2c(nc3ccc(OCc4ccc(B5OC(C)(C)C(C)(C)O5)cc4)cc13)-c1cc3c(c(=O)n1C2)COC(=O)[C@]3(O)CC , which is -6.1

Kindly note the recorded growth for CN1CCN(CCNC(=O)c2cccc(CN3c4cccc5c4C(=Cc4cccnc43)N(C)C5=O)c2)CC1 , which is 49.3
